# Target system: His-LAMA4 as used in Example 6 (species not stated) (Homo sapiens (Human)) (UniProt Q16363)
# Assay details: ForteBio BLI, LAMA-His on anti-His sensor, antibody 33.3 nM
Endpoint label: Response
Response field accepts a number only; no unit should be typed.

Suppose we examine the binder humanized 19C12 antibody H2L6 (antibody, V domains shown) VH: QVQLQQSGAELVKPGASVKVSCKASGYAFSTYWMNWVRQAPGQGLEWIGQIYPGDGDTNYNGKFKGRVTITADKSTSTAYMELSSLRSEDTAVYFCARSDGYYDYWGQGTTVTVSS VL: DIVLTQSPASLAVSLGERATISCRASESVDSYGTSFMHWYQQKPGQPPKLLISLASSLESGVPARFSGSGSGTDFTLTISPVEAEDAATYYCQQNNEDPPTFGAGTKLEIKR ; what Response value has been reported?
1.26
